# SYSTEM UNDER TEST: T1, human HHLA2 expressed on transfected cells (300.19 mouse pre-B cells; CHO cells) (human, UniProt Q9UM44 23-414)
# T1 construct: also called B7-H7; B7H7
# T1 sequence: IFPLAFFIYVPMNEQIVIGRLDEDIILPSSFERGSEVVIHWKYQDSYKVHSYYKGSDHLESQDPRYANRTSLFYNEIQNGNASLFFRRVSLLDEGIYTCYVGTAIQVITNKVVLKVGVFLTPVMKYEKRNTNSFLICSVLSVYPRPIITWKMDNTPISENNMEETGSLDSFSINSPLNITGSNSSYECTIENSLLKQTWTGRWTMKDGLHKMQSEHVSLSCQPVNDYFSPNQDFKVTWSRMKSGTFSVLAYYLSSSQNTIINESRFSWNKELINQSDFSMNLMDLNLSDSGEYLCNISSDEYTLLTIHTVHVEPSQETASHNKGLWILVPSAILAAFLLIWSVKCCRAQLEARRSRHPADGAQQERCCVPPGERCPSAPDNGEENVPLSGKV
# PROTOCOL DESCRIPTION: flow cytometry, mAb titrated on HHLA2-transfected 300.19 pre-B cells, PE goat anti-mouse IgG

BINDER: anti-HHLA2 monoclonal antibody 4D1 (antibody, IgG1, V domains shown, also called 499.5.4D1.5.16; MHC2563) VH: QVQLQQSGAELVRPGVSVKISCKGSGYTFTDYAMHWVKQSHAKSLEWIGSISTYYGDTNYNQKFKGKATMTVDKSSSTAYMELARLTSEDSAIYYCARGNYDDWYFNVWGAGTTVTVSS VL: DIQMTQSPSSLSASLGERVSLTCRASQDISGYLSWLQQKPDGTIKRLIYSTSTLDSGVPKRFSGSRSGSDYSLTISSLESEDFADYYCLQYASSPYTFGGGAKLEIK
UNITS SYMBOL: µg/mL
EC50: 0.44

BINDER: anti-HHLA2 monoclonal antibody 6F10 (antibody, IgG1, V domains shown, also called 499.5.6F10.A4.10; MHC2557) VH: QVHLQQSAAELARPGASVKMSCKASGYTFTTYTMHWVKQRPGQGLEWIGHINPSSGYTDYNQKFKDKTTLTADKSSSTAYMQLNSLTSEDSAVYYCARHPWDSDYWGQGTTLTVSS VL: DIQMTQSPASLSASVGETVTITCRASENIDSYLAWYQQKQGRSPQLLVYAATNLADGVPSRFSGSGSGTQFSLQINRLQSEDVARYYCQHYYITPFTFGSGTKLEIA
UNITS SYMBOL: µg/mL
EC50: 0.25

BINDER: anti-HHLA2 monoclonal antibody 1C8 (antibody, IgG2a, V domains shown, also called 499.5.1C8.9.12.2; MHC2564) VH: EVQLQQSGAELVQPGASVKLSCTASGFNIKDTYMHWVKQRPEQGLEWIGRIDPANGKTIFDPKFQVKATITADTSSNTVYLHLSSLTSEDTAIYYCAWLLPYYFDYWGQGTTLTVSS VL: EIVLTQSPAVMAASPGEKVTITCSVSSSISSSNLHWYQQKSGTSPKLWIYGTSNLASGVPVRFSGSGSGTSYSLTISSMEAEDAATYYCQKWSHYPLTFGAGTKLELK
UNITS SYMBOL: µg/mL
EC50: 0.63
